Reported pIC50 by item:
Tested on: VA-ES-BJ tumor spheroid viability
Assay: Anticancer human tumor VA-ES-BJ cell line growth inhibition;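 further: spheroids exposed to compounds for seven days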
Details: curve of first compound; second compound 0.3 µM; spheroids with HUVEC and MSC
pIC50: −log10 of the molar value.

>  <COMPOUND>
Cn1ncnc1[C@H]1c2n[nH]c(=O)c3cc(F)cc(c23)N[C@@H]1c1ccc(F)cc1 + CC[C@@]1(O)C(=O)OCc2c1cc1n(c2=O)Cc2cc3c(CN(C)C)c(O)ccc3nc2-1

>  <pIC50>
> 8.02

$$$$
>  <COMPOUND>
[2H]c1nc(C)nc([2H])c1-c1cc(NC[C@@H](C)c2cccc3c(C(=O)NC)ccnc23)ncn1 + CC[C@@]1(O)C(=O)OCc2c1cc1n(c2=O)Cc2cc3c(CN(C)C)c(O)ccc3nc2-1

>  <pIC50>
> 7.50

$$$$
>  <COMPOUND>
CNCc1ccc(-c2cc(-c3nc(-c4ccc(S(=O)(=O)C(C)C)cc4)cnc3N)on2)cc1 + CC[C@@]1(O)C(=O)OCc2c1cc1n(c2=O)Cc2cc3c(CN(C)C)c(O)ccc3nc2-1

>  <pIC50>
> 8.02

$$$$
